target: recombinant human IL-31 (C108S), produced in E. coli by ZymoGenetics, MW 18 kDa (human), Q6EBC2; experiment: cell-based or functional assay
attribute-measured: Average Potency (IC50), inhibition of hIL-31-induced proliferation of BAF-3(hIL-31R) cells (nM)
State just the number; it will be interpreted in nM.

Examples with their reported Average Potency (IC50), inhibition of hIL-31-induced proliferation of BAF-3(hIL-31R) cells follow.
humanized 292.12.3.1 construct clone 23 (12VH5-gly + HC(fback) + LC(D70Q, F71Y, T72S)) (antibody, human IgG4, V domains shown) VH: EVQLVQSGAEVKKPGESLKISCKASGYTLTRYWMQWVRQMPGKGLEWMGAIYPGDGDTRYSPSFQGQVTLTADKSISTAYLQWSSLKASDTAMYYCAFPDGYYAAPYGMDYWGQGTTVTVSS VL: DIQMTQSPSSLSASVGDRVTITCRASGNIHNYLAWYQQKPGKVPKLLIYNAKTLADGVPSRFSGSGSGTQYSLTISSLQPEDVATYYCQHFWSTPWTFGQGTKVEIKR	8.6
humanized 292.12.3.1 construct clone 33 (12VH1(germ)-gly + fback) (antibody, human IgG4, V domains shown) VH: QVQLVQSGAEVKKPGASVKVSCKASGYTLTRYWMQWVRQAPGQGLEWMGAIYPGDGDTRYSQKFQGRVTLTADKSTSTAYMELSSLRSEDTAVYYCAFPDGYYAAPYGMDYWGQGTLVTVSS VL: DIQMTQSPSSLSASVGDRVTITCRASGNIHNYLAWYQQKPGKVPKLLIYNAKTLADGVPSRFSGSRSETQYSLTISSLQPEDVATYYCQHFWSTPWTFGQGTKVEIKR	3.1
humanized 292.12.3.1 construct clone 32 (12VH1-gly + HC(F29L, R71A, V78A, R94F) + LC(F71Y)) (antibody, human IgG4, V domains shown) VH: QVQLVQSGAEVKKPGASVKVSCKASGYTLTRYWMQWVRQAPGQGLEWMGAIYPGDGDTRYSQKFQGRVTMTADTSISTAYMELSSLRSEDTAVYYCAFPDGYYAAPYGMDYWGQGTLVTVSS VL: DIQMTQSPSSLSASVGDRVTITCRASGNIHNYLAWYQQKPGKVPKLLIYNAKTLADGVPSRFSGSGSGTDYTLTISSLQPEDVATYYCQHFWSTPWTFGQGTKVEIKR	18.9
humanized 292.12.3.1 construct clone 30 (12VH1-gly + HC(F29L, V78A, R94F) + LC(F71Y)) (antibody, human IgG4, V domains shown) VH: QVQLVQSGAEVKKPGASVKVSCKASGYTLTRYWMQWVRQAPGQGLEWMGAIYPGDGDTRYSQKFQGRVTMTRDTSISTAYMELSSLRSEDTAVYYCAFPDGYYAAPYGMDYWGQGTLVTVSS VL: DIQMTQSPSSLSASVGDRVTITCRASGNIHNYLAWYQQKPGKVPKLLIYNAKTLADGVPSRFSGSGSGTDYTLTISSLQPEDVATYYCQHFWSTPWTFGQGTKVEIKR	57.8

Okay, now this binder:
Please fill in: Average Potency (IC50), inhibition of hIL-31-induced proliferation of BAF-3(hIL-31R) cells reported for humanized 292.12.3.1 construct clone 22 (12VH5-gly + HC(fback) + LC(G66R, G68E, D70Q, T72S)) (antibody, human IgG4, V domains shown) VH: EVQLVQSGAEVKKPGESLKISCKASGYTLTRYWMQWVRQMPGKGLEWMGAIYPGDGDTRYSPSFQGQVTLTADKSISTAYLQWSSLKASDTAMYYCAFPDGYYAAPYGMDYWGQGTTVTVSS VL: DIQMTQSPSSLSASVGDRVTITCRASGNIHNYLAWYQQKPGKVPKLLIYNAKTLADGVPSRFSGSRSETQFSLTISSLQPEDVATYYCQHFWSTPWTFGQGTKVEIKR = 14
